Biological target: HDAC6 (Homo sapiens, UniProt Q9UBN7)
Sequence (Q9UBN7 whole entry): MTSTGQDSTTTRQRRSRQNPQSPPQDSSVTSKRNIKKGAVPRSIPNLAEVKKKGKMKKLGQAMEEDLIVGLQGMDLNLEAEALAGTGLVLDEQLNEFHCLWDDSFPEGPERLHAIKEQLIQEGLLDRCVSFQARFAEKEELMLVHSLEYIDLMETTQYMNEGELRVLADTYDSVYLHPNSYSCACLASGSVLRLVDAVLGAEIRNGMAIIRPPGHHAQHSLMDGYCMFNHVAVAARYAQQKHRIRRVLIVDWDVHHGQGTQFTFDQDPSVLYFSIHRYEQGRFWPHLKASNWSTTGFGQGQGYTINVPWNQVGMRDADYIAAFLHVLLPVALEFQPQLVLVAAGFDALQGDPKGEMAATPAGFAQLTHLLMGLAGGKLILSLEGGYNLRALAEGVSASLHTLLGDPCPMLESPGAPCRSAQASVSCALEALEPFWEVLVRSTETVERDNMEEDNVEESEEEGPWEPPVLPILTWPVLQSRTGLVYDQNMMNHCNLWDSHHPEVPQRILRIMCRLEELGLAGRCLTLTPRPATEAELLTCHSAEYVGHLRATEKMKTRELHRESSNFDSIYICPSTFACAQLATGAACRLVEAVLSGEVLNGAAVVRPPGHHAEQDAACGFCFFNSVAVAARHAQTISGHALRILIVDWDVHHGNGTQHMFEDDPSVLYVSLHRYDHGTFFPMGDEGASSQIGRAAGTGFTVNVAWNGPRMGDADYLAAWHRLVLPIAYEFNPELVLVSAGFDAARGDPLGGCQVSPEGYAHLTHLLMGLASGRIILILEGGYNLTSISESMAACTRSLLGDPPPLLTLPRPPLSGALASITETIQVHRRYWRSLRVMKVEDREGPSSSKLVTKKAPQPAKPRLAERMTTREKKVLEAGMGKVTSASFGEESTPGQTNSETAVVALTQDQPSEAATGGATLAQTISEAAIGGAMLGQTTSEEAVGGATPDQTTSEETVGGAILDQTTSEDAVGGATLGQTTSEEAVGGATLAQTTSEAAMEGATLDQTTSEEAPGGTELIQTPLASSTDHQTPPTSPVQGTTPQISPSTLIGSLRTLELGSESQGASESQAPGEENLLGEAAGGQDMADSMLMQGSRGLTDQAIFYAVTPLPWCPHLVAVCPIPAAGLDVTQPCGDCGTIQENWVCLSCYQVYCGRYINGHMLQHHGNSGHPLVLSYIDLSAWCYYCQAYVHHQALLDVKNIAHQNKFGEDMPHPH
Assay: Inhibition of recombinant HDAC6
metric: IC50

Indicate its recorded IC50; the compound in question is "O=C(NO)c1ccc(CN(CCO)C(=O)c2ccccc2)cc1"
11 nM

###

Biological target: HDAC1 (Homo sapiens)
Sequence (Q13547 whole entry): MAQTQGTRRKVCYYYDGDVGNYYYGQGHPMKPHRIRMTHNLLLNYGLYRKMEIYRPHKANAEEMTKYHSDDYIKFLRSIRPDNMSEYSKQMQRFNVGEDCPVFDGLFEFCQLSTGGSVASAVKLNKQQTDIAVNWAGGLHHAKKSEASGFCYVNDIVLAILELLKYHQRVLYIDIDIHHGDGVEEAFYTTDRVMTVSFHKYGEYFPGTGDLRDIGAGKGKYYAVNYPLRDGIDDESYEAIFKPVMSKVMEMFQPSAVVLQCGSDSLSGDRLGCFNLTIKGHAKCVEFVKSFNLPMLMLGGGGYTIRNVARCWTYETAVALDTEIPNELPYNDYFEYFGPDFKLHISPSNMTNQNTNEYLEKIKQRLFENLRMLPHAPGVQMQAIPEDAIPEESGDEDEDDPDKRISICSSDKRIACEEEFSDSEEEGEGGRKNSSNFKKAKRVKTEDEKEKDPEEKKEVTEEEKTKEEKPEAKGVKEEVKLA
Assay: Inhibition of recombinant HDAC1
Assay type: biochemical
Conditions: read-out: IC50 (nM) HCAC1
Would you kindly list IC50 for each of these molecules?
Answer format: numeric, nM implied, no suffix.

Indicate its recorded IC50; the molecule in question is O=C(CCCCCCC(=O)Nc1ccc([C@H]2O[C@@H](CSc3nc(-c4ccccc4)c(-c4ccccc4)o3)C[C@@H](c3ccc(CO)cc3)O2)cc1)NO [Tubacin, reference compound]
193

Indicate its recorded IC50; the molecule in question is "O=C(NO)c1ccc(CN(CCO)C(=O)c2ccccc2)cc1"
270

Indicate its recorded IC50; the molecule in question is "O=C(NO)c1ccc(CN(CCO)C(=O)Cc2ccccc2)cc1"
1130
